Reference source: ChEMBL document CHEMBL5576098

Method Description: Selectivity index, ratio of CC50 for mouse RAW264.7 cells to IC50 for Leishmania amazonensis amastigotes infected in mouse RAW264.7 cells
Format: toxicity, cell-based
Test Conditions: read-out: Ratio CC50/IC50
We use 0.3 as the dividing line for selectivity ratio: on or above the line is YES, below is NO.

Worked set:
Chemical String: COc1cc(/C=N/NC(=O)c2nc3ccccc3[nH]2)cc(OC)c1
Label: NO
--
Chemical String: O=C(N/N=C/c1ccc([N+](=O)[O-])o1)c1nc2ccccc2[nH]1
Label: YES
--
Chemical String: O=C(N/N=C/c1ccccc1)c1nc2ccccc2[nH]1
Label: YES

Shifting focus to the compound that follows.
[Q] Could you tell me if the measured selectivity ratio of COc1ccc(/C=N/NC(=O)c2nc3ccccc3[nH]2)cc1O reaches 0.3 or more?
[A] YES
